Reported IC50 is given for each of the following compounds.
Target: farnesyl protein transferase (FPT), H-ras (Homo sapiens, UniProt P49354+P49356)
Assay: FPT IC50 (H-ras), inhibition of farnesyl protein transferase, in vitro enzyme assay
Type: biochemical
Settings: Table 3; H-ras; read-out: FPT IC50 (nM) (H-ras)
Description: FPT IC50 (inhibition of farnesyl protein transferase, in vitro enzyme assay) and COS Cell IC50 (Cell-Based Assay) were determined following the assay procedures described in WO 95/10516, published Apr. 20, 1995. GGPT IC50 (inhibition of geranylgeranyl protein transferase, in vitro enzyme assay), Cell Mat Assay, and anti-tumor activity (in vivo anti-tumor studies) could be determined by the assay procedures described in WO 95/10516. […]
Readout Kind: IC50 (nM)

Compound | Target System | Readout Kind | Op | Val
COC(=O)CCC(=O)N1CCC(CC(=O)N2CCC(C3c4ncc(Br)cc4CCc4cc(Cl)cc(Br)c43)CC2)CC1 (single isomer, unassigned; (+)) | farnesyl protein transferase (FPT), H-ras (Homo sapiens, UniProt P49354+P49356) | IC50 | = | 5.1
COC(=O)CCCC(=O)N1CCC(CC(=O)N2CCC(C3c4ncc(Br)cc4CCc4cc(Cl)cc(Br)c43)CC2)CC1 (single isomer, unassigned; (+)) | farnesyl protein transferase (FPT), H-ras (Homo sapiens, UniProt P49354+P49356) | IC50 | = | 4.8
O=C(CCN1CCCCC1)N1CCC(CC(=O)N2CCC(C3c4ncc(Br)cc4CCc4cc(Cl)cc(Br)c43)CC2)CC1 (single isomer, unassigned; (+)) | farnesyl protein transferase (FPT), H-ras (Homo sapiens, UniProt P49354+P49356) | IC50 | < | 2.6

----------
Biological target: farnesyl protein transferase (FPT), H-ras (Homo sapiens, UniProt P49354+P49356)
Test: FPT IC50 (H-ras), inhibition of farnesyl protein transferase, in vitro enzyme assay
Format: biochemical
Conditions: Table 4; read-out: FPT IC50
pIC50: −log10 of the molar value.
Reported pIC50 is given for each of the following molecules.
Readout Kind: pIC50

Molecule | Val
O=C(CC1CCOCC1)N1CCC(CC(=O)N2CCC([C@H]3c4ncc(Br)cc4CCc4cc(Cl)cc(Br)c43)CC2)CC1 | 8.30
N#CCC(=O)N1CCC(CC(=O)N2CCC([C@H]3c4ncc(Br)cc4CCc4cc(Cl)cc(Br)c43)CC2)CC1 | 8.59
O=C(CC1CCN(C(=O)CN2C(=O)CSC2=O)CC1)N1CCC([C@H]2c3ncc(Br)cc3CCc3cc(Cl)cc(Br)c32)CC1 | 8.36
O=C(CC1CCN(C(=O)Cn2cccc2)CC1)N1CCC([C@H]2c3ncc(Br)cc3CCc3cc(Cl)cc(Br)c32)CC1 | 8.38
O=C(CO/N=C/c1ccccc1O)N1CCC(CC(=O)N2CCC([C@H]3c4ncc(Br)cc4CCc4cc(Cl)cc(Br)c43)CC2)CC1 | 8.08
NNC(=O)C(=O)N1CCC(CC(=O)N2CCC([C@H]3c4ncc(Br)cc4CCc4cc(Cl)cc(Br)c43)CC2)CC1 | 8.46
CC(C)(C)OC(=O)NCCC(=O)N1CCC(CC(=O)N2CCC([C@H]3c4ncc(Br)cc4CCc4cc(Cl)cc(Br)c43)CC2)CC1 | 7.74
CC(C)=NOCCC(=O)N1CCC(CC(=O)N2CCC([C@H]3c4ncc(Br)cc4CCc4cc(Cl)cc(Br)c43)CC2)CC1 | 8.55
O=C(OCc1ccccc1)c1cccn1CC(=O)N1CCC(CC(=O)N2CCC([C@H]3c4ncc(Br)cc4CCc4cc(Cl)cc(Br)c43)CC2)CC1 | 8.04
CCOC(=O)CC(=O)N1CCC(CC(=O)N2CCC([C@H]3c4ncc(Br)cc4CCc4cc(Cl)cc(Br)c43)CC2)CC1 | 8.55
NC(=O)CCCCCC(=O)N1CCC(CC(=O)N2CCC([C@H]3c4ncc(Br)cc4CCc4cc(Cl)cc(Br)c43)CC2)CC1 | 8.48
O=C(CC1CCN(C(=O)CC2CCCCO2)CC1)N1CCC([C@H]2c3ncc(Br)cc3CCc3cc(Cl)cc(Br)c32)CC1 (stereo partly shown) | 8.14
O=C(CC1CCN(C(=O)Cn2cnc3ccccc32)CC1)N1CCC([C@H]2c3ncc(Br)cc3CCc3cc(Cl)cc(Br)c32)CC1 | 8.52

----------
Reported pIC50 is given for each of the following compounds.
Target: farnesyl protein transferase (FPT), H-ras (Homo sapiens, UniProt P49354+P49356)
Assay: FPT IC50 (H-ras), inhibition of farnesyl protein transferase, in vitro enzyme assay
Assay type: biochemical
Conditions: Table 4; read-out: FPT IC50
pIC50: −log10 of the molar value.
Readout Kind: pIC50

Compound | Val
NC(=O)CCCCC(=O)N1CCC(CC(=O)N2CCC([C@H]3c4ncc(Br)cc4CCc4cc(Cl)cc(Br)c43)CC2)CC1 [Cmpd 67.0-B] | 8.46
O=C(O)C(=O)N1CCC(CC(=O)N2CCC([C@H]3c4ncc(Br)cc4CCc4cc(Cl)cc(Br)c43)CC2)CC1 [Cmpd 17.0-B] | 8.92
CCOC(=O)c1c(C)ncn1CC(=O)N1CCC(CC(=O)N2CCC([C@H]3c4ncc(Br)cc4CCc4cc(Cl)cc(Br)c43)CC2)CC1 [Cmpd 21.0-B] | 8.24
CONC(=O)C(=O)N1CCC(CC(=O)N2CCC(C3c4ncc(Br)cc4CCc4cc(Cl)cc(Br)c43)CC2)CC1 (stereo not drawn) [Cmpd 49.0-B] | 8.68
COC(=O)c1cccn1CC(=O)N1CCC(CC(=O)N2CCC([C@H]3c4ncc(Br)cc4CCc4cc(Cl)cc(Br)c43)CC2)CC1 [Cmpd 35.0-B] | 8.19
O=C(CC1CCN(C(=O)CN2CCCCC2)CC1)N1CCC([C@H]2c3ncc(Br)cc3CCc3cc(Cl)cc(Br)c32)CC1 [Cmpd 75.0-B] | 8.33

----------
Reported IC50 is given for each of the following compounds.
Target: farnesyl protein transferase (FPT), H-ras (Homo sapiens, UniProt P49354+P49356)
Test: FPT IC50 (H-ras), inhibition of farnesyl protein transferase, in vitro enzyme assay
Type: biochemical
Conditions: Table 4; read-out: FPT IC50
Method: FPT IC50 (inhibition of farnesyl protein transferase, in vitro enzyme assay) and COS Cell IC50 (Cell-Based Assay) were determined following the assay procedures described in WO 95/10516, published Apr. 20, 1995. GGPT IC50 (inhibition of geranylgeranyl protein transferase, in vitro enzyme assay), Cell Mat Assay, and anti-tumor activity (in vivo anti-tumor studies) could be determined by the assay procedures described in WO 95/10516. […]

Compound | IC50 (nM)
CCOC(CC(=O)N1CCC(CC(=O)N2CCC([C@H]3c4ncc(Br)cc4CCc4cc(Cl)cc(Br)c43)CC2)CC1)OCC [Cmpd 76.0-B] | 6.7
O=C(CC1CCN(C(=O)CC2CCCO2)CC1)N1CCC([C@H]2c3ncc(Br)cc3CCc3cc(Cl)cc(Br)c32)CC1 (stereo partly drawn) [Cmpd 114.4-B] | 7.8
NC(=O)CC(=O)N1CCC(CC(=O)N2CCC([C@H]3c4ncc(Br)cc4CCc4cc(Cl)cc(Br)c43)CC2)CC1 [Cmpd 50.0-B] | 3.3
CCOC(=O)c1ncn(CC(=O)N2CCC(CC(=O)N3CCC([C@H]4c5ncc(Br)cc5CCc5cc(Cl)cc(Br)c54)CC3)CC2)c1C [Cmpd 54.0-B] | 3.9
O=C(CC1CCN(C(=O)Cn2cnc3cccnc32)CC1)N1CCC([C@H]2c3ncc(Br)cc3CCc3cc(Cl)cc(Br)c32)CC1 [Cmpd 13.0-B] | 4.1
O=C(O)CC(O)CC(=O)N1CCC(CC(=O)N2CCC([C@H]3c4ncc(Br)cc4CCc4cc(Cl)cc(Br)c43)CC2)CC1 (stereo partly drawn) [Example 74.0-B] | 1.7

----------
Target: farnesyl protein transferase (FPT), H-ras (Homo sapiens, UniProt P49354+P49356)
Assay: FPT IC50 (H-ras), inhibition of farnesyl protein transferase, in vitro enzyme assay
Assay type: biochemical
Settings: Table 4; read-out: FPT IC50
Sorting guide: entries reporting IC50 beneath 4 nM go in the label 1 pile, the rest go in the label 0 pile.

Compound | Discrete Label
O=C(O)CCCCCC(=O)N1CCC(CC(=O)N2CCC([C@H]3c4ncc(Br)cc4CCc4cc(Cl)cc(Br)c43)CC2)CC1 | label 1
NC(=O)CCC(=O)N1CCC(CC(=O)N2CCC([C@H]3c4ncc(Br)cc4CCc4cc(Cl)cc(Br)c43)CC2)CC1 | label 1
O=C(NOCc1ccccc1)C(=O)N1CCC(CC(=O)N2CCC([C@H]3c4ncc(Br)cc4CCc4cc(Cl)cc(Br)c43)CC2)CC1 | label 0
NCCCC(=O)N1CCC(CC(=O)N2CCC([C@H]3c4ncc(Br)cc4CCc4cc(Cl)cc(Br)c43)CC2)CC1 | label 1
CC(C)(C)OC(=O)NCCCC(=O)N1CCC(CC(=O)N2CCC([C@H]3c4ncc(Br)cc4CCc4cc(Cl)cc(Br)c43)CC2)CC1 | label 0
O=C(O)CCCC(=O)N1CCC(CC(=O)N2CCC([C@H]3c4ncc(Br)cc4CCc4cc(Cl)cc(Br)c43)CC2)CC1 | label 1
O=C(CC1CCN(C(=O)CN2CCS(=O)(=O)CC2)CC1)N1CCC([C@H]2c3ncc(Br)cc3CCc3cc(Cl)cc(Br)c32)CC1 | label 1
COC(NC(=O)CC(=O)N1CCC(CC(=O)N2CCC([C@H]3c4ncc(Br)cc4CCc4cc(Cl)cc(Br)c43)CC2)CC1)C(C)C (stereo partly shown) | label 0
O=C(CC1CCN(C(=O)Cn2cncn2)CC1)N1CCC([C@H]2c3ncc(Br)cc3CCc3cc(Cl)cc(Br)c32)CC1 | label 1
O=C(C(=O)N1CCC(CC(=O)N2CCC([C@H]3c4ncc(Br)cc4CCc4cc(Cl)cc(Br)c43)CC2)CC1)c1cccs1 | label 0
O=C(O)c1cccn1CC(=O)N1CCC(CC(=O)N2CCC([C@H]3c4ncc(Br)cc4CCc4cc(Cl)cc(Br)c43)CC2)CC1 | label 1
O=C(CC1CCN(C(=O)Cn2cnc([N+](=O)[O-])c2)CC1)N1CCC([C@H]2c3ncc(Br)cc3CCc3cc(Cl)cc(Br)c32)CC1 | label 1

Origin of measurements: patent US6387905B2
